- systemUnderTest: NHERF2_2, Q15599
- Sequence (Q15599 142-238): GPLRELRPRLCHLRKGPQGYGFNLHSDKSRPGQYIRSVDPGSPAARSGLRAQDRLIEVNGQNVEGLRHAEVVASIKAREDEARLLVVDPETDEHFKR
- experimentNotes: holdup assay
- Parameters: key: below the threshold = too weak to quantify, mostly under pKd 3.1 to 4
- reportedConditions: plain residues with an end cap or a label only (N-terminal biotin on a linker: ado-ado)
Overview of recorded pKd for various binders
Answer using only a numeral; do not append any unit.

Below, 7 binders whose answers are already recorded.
# binder, reportedEndpoint, val
records = [
    ("QGLAERISVL [PRKD2, Q9BZL6]", "pKd", 4.5),
    ("IKAIVDLTGL [TRAF2, Q12933]", "pKd", 3.91),
    ("NLSIEKETKL [ASNSD1, Q9NWL6]", "pKd", 4.76),
    ("RRRESYSTTV [EVI5, O60447]", "pKd", 4.21),
    ("DTTVPESEDL [MYOZ2, Q9NPC6]", "pKd", 4.27),
    ("LPHPHSTTRV [NLGN2, Q8NFZ4]", "pKd", 3.75),
    ("VRNLPESEEL [MYOZ3, Q8TDC0]", "pKd", 3.64),
]

Now look at this one.
Enquiry: Look up pKd of PRAEAEDSFL [PDGFRB, P09619] and report it.
Return: 5.05

meta.source: paper PMC9482650
